Entry source: patent US20220332795A1

target_desc: T1, recombinant biotinylated human CD71 extracellular domain (human, UniProt P02786 89-760, biotinylated)
T1 construct: extracellular domain; also called hCD71; huCD71 ECD
protocol_details: solution ELISA, signal ratio to HSA
parameter_measured: hCD71:HSA

binder="SEQ ID NO 119 (designed binder, FN3 domain) MLPAPKNLVVSRVTEDSARLSWTAPDAAFDSFYIAYAEPRPDGEAINLDVPGSERSYDLTGLKPGTEYSVLIHGVKGGLLSSPLVAEFTT" parameter_measured=hCD71:HSA result=57.6
binder="SEQ ID NO 166 (designed binder, FN3 domain) MLPAPKNLVVSRVTEDSARLSWTAPDAAFDSFYIAYAEPRPDGEAIFLQVPGSERSYDLTGLKPGTEYSVLIHGVKGGLLSSPLNAFFTT" parameter_measured=hCD71:HSA result=34
binder="SEQ ID NO 187 (designed binder, FN3 domain) MLPAPKNLVVSRVTEDSARLSWTAPDAAFDSFFIGYLEPQPPGEAISLLVPDSERSYDLTGLKPGTEYNVTIQGVKGGFPSMPLKFTT" parameter_measured=hCD71:HSA result=10.9
binder="SEQ ID NO 197 (designed binder, FN3 domain) MLPAPKNLVVSRVTEDSARLSWTAPDAAFDSFYIAYAEPRPDGEAIKLDVPGSERSYDLTGLKPGTEYSVLIHGVKGGLLSSPLVAFFTT" parameter_measured=hCD71:HSA result=29.6
binder="SEQ ID NO 125 (designed binder, FN3 domain) MLPAPKNLVVSRVTEDSARLSWTAPDAAFDSFYIAYAEPRPDGEAIALHVPGSERSYDLTGLKPGTEYSVLIHGVKGGLLSSPLVAFFTT" parameter_measured=hCD71:HSA result=76.2
binder="SEQ ID NO 120 (designed binder, FN3 domain) MLPAPKNLVVSRVTEDSARLSWTAPDAAFDSFYIAYAEPRPDGEAIHLSVPGSERSYDLTGLKPGTEYSVLIHGVKGGLLSSPLVAIFTT" parameter_measured=hCD71:HSA result=42.5
binder="SEQ ID NO 151 (designed binder, FN3 domain) MLPAPKNLVVSRVTEDSARLSWTAPDAAFDSFFIGYLEPQPPGEAIQLWVPGSERSYDLTGLKPGTEYNVTIQGVKGGFPSRPLQAHFTT" parameter_measured=hCD71:HSA result=45.2
binder="SEQ ID NO 133 (designed binder, FN3 domain) MLPAPKNLVVSRVTEDSARLSWTAPDAAFDSFYIAYAEPRPDGEAIYLYVPGSERSYDLTGLKPGTEYSVLIHGVKGGLLSSPLDAFFTT" parameter_measured=hCD71:HSA result=41
binder="SEQ ID NO 107 (designed binder, FN3 domain) MSLPAPKNLVVSRVTEDSARLSWTAPDAAFDSFYIAYAEPRPDGEAISLYVPGSERSYDLTGLKPGTEYSVLIHGVKGGLLSSPLSAISTT" parameter_measured=hCD71:HSA result=21.8
